System: Kelly cells
PROTOCOL NOTES: Cell viability CTG assay, Kelly
Assay type: cell-based
SETTINGS: 72 h, 0.001-50 μM, read-out: Kelly Geomean absolute IC50 by molecule, 72 H

{"columns": ["MOLECULE", "MEASURED TARGET", "IC50"],
 "data": [
  ["Cc1oc(=O)oc1COC(=O)NCc1ccc2c(c1)CN(C1CCC(=O)NC1=O)C2=O (centres unmarked)", "Kelly cells", "1000 to 5000 nM"],
  ["NCC(=O)NCc1ccc2c(c1)CN(C1CCC(=O)NC1=O)C2=O (centres unmarked)", "Kelly cells", "1000 to 5000 nM"],
  ["CC(=O)Oc1cc(C)cc(C)c1C(C)(C)CC(=O)NCc1ccc2c(c1)CN(C1CCC(=O)NC1=O)C2=O (centres unmarked)", "Kelly cells", "1000 to 5000 nM"],
  ["NC(Cc1c[nH]c2ccccc12)C(=O)NCc1ccc2c(c1)CN(C1CCC(=O)NC1=O)C2=O (centres unmarked)", "Kelly cells", "100 to 1000 nM"],
  ["NCc1cc2c(cc1F)C(=O)N(C1CCC(=O)NC1=O)C2 (centres unmarked)", "Kelly cells", "≤ 100 nM"],
  ["[2H]C([2H])(N)c1ccc2c(c1)CN(C1CCC(=O)NC1=O)C2=O (centres unmarked)", "Kelly cells", "100 to 1000 nM"],
  ["NCc1ccc2c(c1)CN(C1CCC(=O)NC1=O)C2=O (centres unmarked)", "Kelly cells", "100 to 1000 nM"],
  ["N[C@@H](Cc1cnc[nH]1)C(=O)NCc1ccc2c(c1)CN([C@@H]1CCC(=O)NC1=O)C2=O", "Kelly cells", "100 to 1000 nM"]
]}

* * *

MEASURED TARGET: GSPT1 (Homo sapiens, UniProt P15170+Q96SW2)
Construct: GSPT1 degradation in the Hep3B cell line was investigated; endogenous in cells; host or cells: Hep3B
Sequence (P15170 whole entry): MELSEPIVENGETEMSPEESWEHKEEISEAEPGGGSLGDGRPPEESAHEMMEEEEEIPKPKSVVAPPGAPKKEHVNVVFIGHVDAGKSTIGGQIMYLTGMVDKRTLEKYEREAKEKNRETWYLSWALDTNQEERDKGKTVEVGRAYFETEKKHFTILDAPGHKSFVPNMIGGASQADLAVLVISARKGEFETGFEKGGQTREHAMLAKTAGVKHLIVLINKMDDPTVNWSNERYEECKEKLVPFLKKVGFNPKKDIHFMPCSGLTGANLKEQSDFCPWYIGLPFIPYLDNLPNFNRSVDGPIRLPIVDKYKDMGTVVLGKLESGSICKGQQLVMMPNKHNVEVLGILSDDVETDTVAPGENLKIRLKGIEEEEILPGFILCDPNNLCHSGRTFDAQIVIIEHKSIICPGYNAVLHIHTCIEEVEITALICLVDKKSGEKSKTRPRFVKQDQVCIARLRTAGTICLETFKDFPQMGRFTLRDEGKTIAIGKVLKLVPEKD
Sequence (Q96SW2 whole entry): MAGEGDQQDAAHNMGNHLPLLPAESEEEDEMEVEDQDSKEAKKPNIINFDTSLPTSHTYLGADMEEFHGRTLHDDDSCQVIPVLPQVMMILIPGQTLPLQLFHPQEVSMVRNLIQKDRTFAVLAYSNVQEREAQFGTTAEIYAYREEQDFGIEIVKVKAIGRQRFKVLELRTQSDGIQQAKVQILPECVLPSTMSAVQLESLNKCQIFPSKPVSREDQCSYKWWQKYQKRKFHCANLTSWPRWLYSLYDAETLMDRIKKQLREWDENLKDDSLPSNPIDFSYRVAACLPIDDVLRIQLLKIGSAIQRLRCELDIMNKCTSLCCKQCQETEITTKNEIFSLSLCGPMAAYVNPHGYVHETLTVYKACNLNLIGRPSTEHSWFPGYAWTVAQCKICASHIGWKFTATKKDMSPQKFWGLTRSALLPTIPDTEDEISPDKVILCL
Sequence (Q16531 whole entry partner): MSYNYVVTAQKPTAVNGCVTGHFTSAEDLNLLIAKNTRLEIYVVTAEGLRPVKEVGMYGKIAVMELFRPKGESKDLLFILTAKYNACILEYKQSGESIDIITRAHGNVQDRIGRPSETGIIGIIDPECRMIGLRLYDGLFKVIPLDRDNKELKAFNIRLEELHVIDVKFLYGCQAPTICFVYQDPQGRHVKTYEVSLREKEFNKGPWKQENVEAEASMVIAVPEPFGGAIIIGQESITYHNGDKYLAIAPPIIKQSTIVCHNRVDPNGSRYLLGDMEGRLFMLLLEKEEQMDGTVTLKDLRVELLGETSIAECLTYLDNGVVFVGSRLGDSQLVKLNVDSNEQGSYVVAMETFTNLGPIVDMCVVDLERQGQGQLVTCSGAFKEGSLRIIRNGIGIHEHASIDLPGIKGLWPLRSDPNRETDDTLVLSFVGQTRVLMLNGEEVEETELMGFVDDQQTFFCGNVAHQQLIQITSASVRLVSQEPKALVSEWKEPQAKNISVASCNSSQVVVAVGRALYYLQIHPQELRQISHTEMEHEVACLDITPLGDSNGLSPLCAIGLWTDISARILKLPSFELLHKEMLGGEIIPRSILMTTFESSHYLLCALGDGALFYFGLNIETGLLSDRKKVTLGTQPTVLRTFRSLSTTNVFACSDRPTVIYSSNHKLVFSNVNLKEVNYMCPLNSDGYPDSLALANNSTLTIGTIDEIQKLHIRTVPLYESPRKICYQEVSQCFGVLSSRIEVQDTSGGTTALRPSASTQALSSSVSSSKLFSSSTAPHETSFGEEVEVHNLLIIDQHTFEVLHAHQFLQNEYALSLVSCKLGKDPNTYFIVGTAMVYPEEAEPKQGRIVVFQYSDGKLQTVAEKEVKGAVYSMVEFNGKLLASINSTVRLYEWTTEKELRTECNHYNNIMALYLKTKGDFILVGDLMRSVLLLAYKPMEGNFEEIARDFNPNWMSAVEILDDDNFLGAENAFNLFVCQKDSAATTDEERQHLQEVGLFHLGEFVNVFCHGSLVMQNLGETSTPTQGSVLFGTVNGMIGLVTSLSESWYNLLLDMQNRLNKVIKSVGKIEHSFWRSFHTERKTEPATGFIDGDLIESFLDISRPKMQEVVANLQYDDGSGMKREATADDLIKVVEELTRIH
PROTOCOL NOTES: GSPT1 degradation assay, Hep3B cell line
Type: cell-based
SETTINGS: HEP3B cells, 10 uM, 24 h; read-out: % of GSPT1 protein reduction
PROPERTY MEASURED: inhibition at 10 µM

{"columns": ["COMPOUND", "MEASURED TARGET", "PROPERTY MEASURED", "RECORDED MEASUREMENT"],
 "data": [
  ["O=C1CCC(N2Cc3cc(C(=O)O)c(F)cc3C2=O)C(=O)N1 (centres unmarked)", "GSPT1 (Homo sapiens, UniProt P15170+Q96SW2)", "inhibition at 10 µM", "80 to 100%"],
  ["CC(=O)OCc1ccccc1C(=O)NCc1ccc2c(c1)CN(C1CCC(=O)NC1=O)C2=O (centres unmarked)", "GSPT1 (Homo sapiens, UniProt P15170+Q96SW2)", "inhibition at 10 µM", "50 to 79%"],
  ["O=C1CCC(N2Cc3cc(CNC(=O)c4ccccc4CO)ccc3C2=O)C(=O)N1 (centres unmarked)", "GSPT1 (Homo sapiens, UniProt P15170+Q96SW2)", "inhibition at 10 µM", "50 to 79%"],
  ["O=C1CCC(N2Cc3cc(C(=O)O)ccc3C2=O)C(=O)N1 (centres unmarked)", "GSPT1 (Homo sapiens, UniProt P15170+Q96SW2)", "inhibition at 10 µM", "80 to 100%"],
  ["CC1c2cc(CN)ccc2C(=O)N1C1CCC(=O)NC1=O (centres unmarked)", "GSPT1 (Homo sapiens, UniProt P15170+Q96SW2)", "inhibition at 10 µM", "80 to 100%"]
]}
